Each entry below carries its reported change in melting temperature F21T 1 uM.
Test system: human telomeric G-quadruplex DNA (F21T)
Test: FRET melting assay, human telomeric quadruplex
Type: binding
Conditions: 1 uM ligand
Please reply with the value in numeric form only.

compound: CN1CCN(CCCN2C(=O)c3cc(NCCCN4CCOCC4)c4c5c(cc(NCCCN6CCOCC6)c(c35)C2=O)C(=O)N(CCCN2CCN(C)CC2)C4=O)CC1
change in melting temperature F21T 1 uM: 29

compound: CN1CCN(CCCNc2cc3c4c(c(NCCCN5CCN(C)CC5)cc5c4c2C(=O)N(CC2CCCO2)C5=O)C(=O)N(CC2CCCO2)C3=O)CC1 (centres unmarked)
change in melting temperature F21T 1 uM: 23

API: the following record is the query input.
Form field change in melting temperature F21T 1 uM, entry CN1CCN(CCN2C(=O)c3cc(NCCCN4CCOCC4)c4c5c(cc(NCCCN6CCOCC6)c(c35)C2=O)C(=O)N(CCN2CCN(C)CC2)C4=O)CC1 : 26
